assay: qHTS for Inhibitors of binding or entry into cells for Marburg Virus; conditions: Marburg virus pseudotype entry/binding inhibition, cell-based; series mostly up to 49.2 µM; further: on the % scale 0 is the no-effect control and ±100 the full control effect
The campaign covered roughly 18,000 compounds. About 1,200 (6.7%) were called active. Not shown: some 16% with an inconclusive outcome. Many of the other results were omitted from the sample, so actives are more common in it than they were.

[
  {
    "compound": "CCCCOCC1CN(CCCC)S(=O)(=O)c2c(Oc3ccc(F)cc3)cccc2O1 (stereo not drawn)",
    "activity change, negative = inhibition": "inactive"
  },
  {
    "compound": "COc1cccc([C@H](O)Cn2cc(-c3ccc(CON=C(C)C)cc3)nn2)c1",
    "activity change, negative = inhibition": "7.92% [at 8.59 µM] (inactive)"
  },
  {
    "compound": "Cc1ccc(NC(=O)O[C@@H]2C(=O)c3cc(Br)ccc3O[C@H]2c2ccc3c(c2)OCO3)cc1Br",
    "activity change, negative = inhibition": "inactive"
  }
]
